Kindly supply the reported Delta-p50 (%) values for the records listed here.
target.of.assay: Hb (Homo sapiens, UniProt P68871+P69905)
Construct: from tissue; host or cells: whole blood
Sequence (P69905 2-142 limits assumed): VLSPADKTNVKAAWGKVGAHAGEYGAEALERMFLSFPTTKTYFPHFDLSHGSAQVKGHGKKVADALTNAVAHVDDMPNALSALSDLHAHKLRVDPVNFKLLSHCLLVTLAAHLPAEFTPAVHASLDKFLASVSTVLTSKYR
Sequence (P68871 2-147 limits assumed): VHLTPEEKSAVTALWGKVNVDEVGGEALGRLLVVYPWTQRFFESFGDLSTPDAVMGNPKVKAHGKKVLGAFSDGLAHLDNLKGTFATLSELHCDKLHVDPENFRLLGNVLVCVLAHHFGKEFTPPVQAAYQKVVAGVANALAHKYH
assay.comment: Whole blood assay: oxygen equilibrium curves (Hemox Analyzer), change in p50
Assay type: cell-based
condition.details: whole blood incubated 1 h at 37° C., equimolar ratio of hemoglobin to compound
Experimental: Whole blood assay: Oxygen equilibrium curves (OECs) were collected using a TCS Hemox Analyzer (TCS Scientific Company, New Hope, Pa., USA) to measure changes in the binding affinity of O2 to Hb. […] Percentage change in p50 [Δp50(%)] was calculated as follows: Δp50(%)=[(p50 of control)−p50 with compound)/p50 control]×100.
// units = %; emit number, no label

get_value(item= O=Cc1c(O)cccc1OC[C@@H]1CCCCN1C(=O)c1ccccc1C(O)CO (some centres unmarked) [Compound 34] , readout=Delta-p50 (%)) returns 79.46

get_value(item= CC(C)(O)Cc1ncccc1C(=O)N1CCOC[C@H]1COc1cccc(O)c1C=O , readout=Delta-p50 (%)) returns 77.98

get_value(item= COCCc1ccccc1C(=O)N1CCOC[C@H]1COc1cccc(O)c1C=O , readout=Delta-p50 (%)) returns 78.79

get_value(item= O=Cc1c(O)cccc1OC[C@@H]1COCCN1C(=O)c1ccccc1CO , readout=Delta-p50 (%)) returns 70.92

get_value(item= N#CCCc1ccccc1C(=O)N1CCCC[C@H]1COc1cccc(O)c1C=O , readout=Delta-p50 (%)) returns 80.5

get_value(item= O=Cc1c(O)cccc1OC[C@@H]1CCCCN1C(=O)c1cccnc1CO , readout=Delta-p50 (%)) returns 79.3

get_value(item= O=Cc1c(O)cccc1OCC1CSCCN1C(=O)c1ccccc1CO (single isomer, unassigned) [40 (Enantiomer 1)] , readout=Delta-p50 (%)) returns 64.31

get_value(item= O=Cc1c(O)cccc1OC[C@@H]1CCCCN1C(=O)c1cccnc1C(O)CO (some centres unmarked) , readout=Delta-p50 (%)) returns 77.04

get_value(item= O=Cc1c(O)cccc1OC[C@@H]1CCCCN1C(=O)c1ccccc1CCN1CCCC1 , readout=Delta-p50 (%)) returns 27.09

get_value(item= O=Cc1c(O)cccc1OC[C@@H]1CCCCN1C(=O)c1ccccc1CO , readout=Delta-p50 (%)) returns 81.0

get_value(item= CC(O)c1ncccc1C(=O)N1CCSC[C@H]1COc1cccc(O)c1C=O (single isomer, unassigned) [43 (Diastereomer 2)] , readout=Delta-p50 (%)) returns 64.56

get_value(item= O=Cc1c(O)cccc1OC[C@H]1CCCCN1C(=O)c1cccnc1CCO , readout=Delta-p50 (%)) returns 60.85

get_value(item= CC(O)Cc1ncccc1C(=O)N1CCOC[C@H]1COc1cccc(O)c1C=O (single isomer, unassigned) [42 (Diastereomer 2)] , readout=Delta-p50 (%)) returns 75.05

get_value(item= O=Cc1c(O)cccc1OC[C@@H]1CCCN1C(=O)c1cccnc1CCO , readout=Delta-p50 (%)) returns 62.2

get_value(item= O=Cc1c(O)cccc1OC[C@@H]1COCCN1C(=O)c1nccnc1CCO , readout=Delta-p50 (%)) returns 60.21

get_value(item= CC(O)c1ncccc1C(=O)N1CCOC[C@H]1COc1cccc(O)c1C=O (single isomer, unassigned) [41 (Diastereomer 2)] , readout=Delta-p50 (%)) returns 53.94

get_value(item= O=Cc1c(O)cccc1OCC1CSCCN1C(=O)c1ccccc1CO (single isomer, unassigned) [40 (Enantiomer 2)] , readout=Delta-p50 (%)) returns 83.36
